Test system: SNU668
Test: Cell viability drug screen, 12-point dose-response AUC
Type: cell-based, human
Details: SNU668 cells; 72 hours; 12-point dose-response
Each record is given y if its reported area under the viability curve (AUC), normalized is strictly below 0.2. Records at or above 0.2 are given n.

Input: Is area under the viability curve (AUC), normalized strictly under 0.2 for the entry CC(C)C[C@H](NC(=O)[C@H](Cc1ccccc1)NC(=O)c1cnccn1)B(O)O ?
Output: n

Input: For this compound, is area under the viability curve (AUC), normalized lower than 0.2? C/C(=C\c1csc(C)n1)[C@@H]1C[C@@H]2O[C@@H]2CCC[C@H](C)[C@H](O)[C@@H](C)C(=O)C(C)(C)[C@@H](O)CC(=O)O1
Output: y

Input: Consider the compound Nc1cc(C(F)(F)F)c(-c2cc(N3CCOCC3)nc(N3CCOCC3)n2)cn1 . Is its area under the viability curve (AUC), normalized strictly less than 0.2?
Output: n

Input: Given CN(C)c1ccc(C(=C2C=CC(=[N+](C)C)C=C2)c2ccc(N(C)C)cc2)cc1 , is recorded area under the viability curve (AUC), normalized strictly lower than 0.2?
Output: y

Input: # check: area under the viability curve (AUC), normalized < 0.2 for CCCOc1ccc2nc(NC(=O)OC)[nH]c2c1
Output: y

Input: Hello, I'm reviewing records and need to know if area under the viability curve (AUC), normalized of C[C@@H]1O[C@@H](O[C@H]2C[C@@H](O)[C@]3(CO)[C@H]4[C@H](O)C[C@]5(C)[C@@H](C6=CC(=O)OC6)CC[C@]5(O)[C@@H]4CC[C@]3(O)C2)[C@H](O)[C@H](O)[C@H]1O is below 0.2. Could you check?
Output: y
